# assay details: Lipophilicity, log D of the compound in phosphate buffer at ph 7.4
# Assay type: physicochemical
readout label: logD

>>> numeric_readout("CCN(Cc1cccnc1)C(=O)CN(c1ccc(O[11CH3])nc1)S(=O)(=O)c1ccccc1C")
1.94

====

# assay details: Fraction unbound in baboon plasma after 10 mins
# Assay type: ADME, cell-free
# test context: papio anubis
readout label: fraction unbound at 10 min

>>> result("CCN(Cc1cccnc1)C(=O)CN(c1ccc(O[11CH3])nc1)S(=O)(=O)c1ccccc1C")
0.113
